- procedure.text: Equilibrium solubility of cabazitaxel in aqueous SBECD
- Type: physicochemical
- measurement.conditions: aqueous SBECD solution, 23 °C, aqueous with cosolvent or surfactant or cyclodextrin, thermodynamic from solid, aqueous SBECD 10%, read-out: Cabazitaxel concentration (equilibrium solubility)
parameter: solubility thermodynamic at 16 h (µg/mL)
Write the value in µg/mL as a bare number.

IN: Any idea what its solubility thermodynamic at 16 h is? The compound is `CO[C@H]1C(=O)[C@]2(C)[C@@H](OC)C[C@H]3OC[C@@]3(OC(C)=O)[C@H]2[C@H](OC(=O)c2ccccc2)[C@]2(O)C[C@H](OC(=O)[C@H](O)[C@@H](NC(=O)OC(C)(C)C)c3ccccc3)C(C)=C1C2(C)C`
OUT: 990

====

- procedure.text: Equilibrium solubility of cabazitaxel in aqueous SBECD
- Assay type: physicochemical
- measurement.conditions: aqueous SBECD solution, 23 °C, aqueous with cosolvent or surfactant or cyclodextrin, thermodynamic from solid, aqueous SBECD 1%, read-out: Cabazitaxel concentration (equilibrium solubility)
parameter: solubility thermodynamic at 16 h (µg/mL)
Express your answer in µg/mL, writing the number without its unit.

IN: So what does the record say about solubility thermodynamic at 16 h for CO[C@H]1C(=O)[C@]2(C)[C@@H](OC)C[C@H]3OC[C@@]3(OC(C)=O)[C@H]2[C@H](OC(=O)c2ccccc2)[C@]2(O)C[C@H](OC(=O)[C@H](O)[C@@H](NC(=O)OC(C)(C)C)c3ccccc3)C(C)=C1C2(C)C [cabazitaxel] ?
OUT: 270

====

- procedure.text: Equilibrium solubility of cabazitaxel in aqueous SBECD
- Format: physicochemical
- measurement.conditions: aqueous SBECD solution, 23 °C, aqueous with cosolvent or surfactant or cyclodextrin, thermodynamic from solid, aqueous SBECD 40%, read-out: Cabazitaxel concentration (equilibrium solubility)
parameter: solubility thermodynamic at 16 h (µg/mL)
Write down the numeric answer in µg/mL and omit the unit.

IN: GET /values?readout=solubility thermodynamic at 16 h&item= `CO[C@H]1C(=O)[C@]2(C)[C@@H](OC)C[C@H]3OC[C@@]3(OC(C)=O)[C@H]2[C@H](OC(=O)c2ccccc2)[C@]2(O)C[C@H](OC(=O)[C@H](O)[C@@H](NC(=O)OC(C)(C)C)c3ccccc3)C(C)=C1C2(C)C`
OUT: 4170
